- MEASURED TARGET: Solute carrier family 2, facilitated glucose transporter member 1 (Homo sapiens)
- EXPERIMENTAL PROTOCOL: ST_JUDE_LEISH: Cytotoxicity at 2uM final concentration against transgenic Leishmania Mexicana promastigotes LmGLUT1 that are glucose transport deficient and complemented with the human glucose transporter GLUT1. Activity is measured by DNA content using SYBR green in vitro
- Assay type: functional
EXPERIMENTAL READOUT: inhibition (%)
Give bare numbers, in %.

Worked cases, inhibition given:
- O=C(/C=C/c1c(Cl)cccc1Cl)NC1CCC(CN2C3CCC2CC(c2c[nH]c4ccccc24)C3)CC1 (centres undefined): 2.07
- CCOC(=O)c1c(C)n(C2CCCCC2)c2cc(Br)c(O)cc12: -0.53
- O=C(Cc1cc(=O)oc2cc(O)ccc12)N1CCC(CN2CCC(c3c[nH]c4ccccc34)CC2)CC1: 4.12
- CCCCCc1cc(O)c2c(c1)OC(C)(C)c1ccncc1-2: 0.55
- c1ccc(C(OCCC2CCN(Cc3cccc4cccnc34)CC2)c2ccccc2)cc1: 9.36
- Oc1ccccc1CNCC(O)c1cc(C(F)(F)F)cc(C(F)(F)F)c1 (centres undefined): 6.65

Dear colleague, could you please provide inhibition for the compounds listed below?
1. CO[C@@H]1C[C@@H](C(=O)Nc2ccccc2)N(c2ccc(C#N)c3ccccc23)C1
2. C#CCOc1ccc(CC(C)NCC(O)c2cccc(C(F)(F)F)c2)cc1 (centres undefined)

Response:
[4.31, 0.24]

Dear colleague, could you please provide inhibition for the compounds listed below?
1. Cc1[nH]c2ccccc2c1C1CCN(CC2CCC(NC(=O)/C=C/c3ccc(Cl)c(Cl)c3)CC2)CC1 (centres undefined)
2. COc1cc(C=CC(=O)NC2CCC(CN3CCC(c4c[nH]c5ccccc45)CC3)CC2)cc(OC)c1 (centres undefined)
3. CC[C@H]1CN2CC[C@H]1C[C@H]2[C@H](O)c1cc(-c2ccc(OC(F)(F)F)cc2)nc2ccc(OC)cc12
4. CCCCCCCc1cc(O)c2c(c1)OC(C)(C)c1ccncc1-2
5. NC(=O)CN1CC=C(c2c[nH]c3ccc(Br)cc23)CC1
6. CCN1CCC(N2CCC(n3c(C)nc4cc(C(F)(F)F)ccc43)CC2)CC1
7. COc1ccc2[nH]cc(C3CC4CCC(C3)N4CCC3CCN(C(=O)/C=C/c4ccc(Cl)c(Cl)c4)CC3)c2c1 (centres undefined)
8. COc1ccc(CCNCc2ccc3nc(N)c(C)cc3c2)cc1

Response:
1: 6.8; 2: -1.01; 3: 4.51; 4: 1.49; 5: -1.87; 6: 3.01; 7: -0.2; 8: 0.92

====

- MEASURED TARGET: Glucose transporter (Leishmania mexicana) (UniProt O61059)
- EXPERIMENTAL PROTOCOL: ST_JUDE_LEISH: Cytotoxicity at 2uM final concentration against transgenic Leishmania Mexicana promastigotes LmGT2 that are glucose transport deficient and complemented with the L. Mexicana glucose transporter 2. Activity is measured by DNA content using SYBR green in vitro
- Assay type: functional
Provide the recorded inhibition for the entries that follow.
Give bare numbers, in %.

Dear colleague, could you please provide inhibition for the compounds listed below?
1. CCOC(C(=O)OCC1CCCN(C)C1)(c1ccccc1)c1ccccc1 (stereo not given)
2. C#CCN1CCC2=C(C1)c1c(O)cc(C(C)C(C)CCc3ccc(F)cc3)cc1OC2(C)C (stereo not given)
3. O=C(/C=C/c1ccc(Cl)c(Cl)c1)NC1CCC(CN2CCC(c3c[nH]c4cc(O)ccc34)CC2)CC1 (stereo not given)

Response:
[5.83, -1.42, -0.33]

Dear colleague, could you please provide inhibition for the compounds listed below?
1. CCCCCc1cc(O)c2c(c1)OC(C)(C)CC2C1=CCN(Cc2ccccc2)CC1 (stereo not given)
2. CC(Cc1ccc(NC(=O)CCCc2ccccc2)cc1)NCCc1cccc(Cl)c1 (stereo not given)

Response:
1. 2.74
2. 2.44
